target: human ether-à-go-go-related gene (hERG) potassium channel (human, UniProt Q12809); assay: primary screen, population patch clamp on CHO cells stably expressing hERG; higher = less effect of the substance;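 note: peak tail current of the secondary pulse compared with the same well before compound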
Sequence (Q12809 whole entry, looked up): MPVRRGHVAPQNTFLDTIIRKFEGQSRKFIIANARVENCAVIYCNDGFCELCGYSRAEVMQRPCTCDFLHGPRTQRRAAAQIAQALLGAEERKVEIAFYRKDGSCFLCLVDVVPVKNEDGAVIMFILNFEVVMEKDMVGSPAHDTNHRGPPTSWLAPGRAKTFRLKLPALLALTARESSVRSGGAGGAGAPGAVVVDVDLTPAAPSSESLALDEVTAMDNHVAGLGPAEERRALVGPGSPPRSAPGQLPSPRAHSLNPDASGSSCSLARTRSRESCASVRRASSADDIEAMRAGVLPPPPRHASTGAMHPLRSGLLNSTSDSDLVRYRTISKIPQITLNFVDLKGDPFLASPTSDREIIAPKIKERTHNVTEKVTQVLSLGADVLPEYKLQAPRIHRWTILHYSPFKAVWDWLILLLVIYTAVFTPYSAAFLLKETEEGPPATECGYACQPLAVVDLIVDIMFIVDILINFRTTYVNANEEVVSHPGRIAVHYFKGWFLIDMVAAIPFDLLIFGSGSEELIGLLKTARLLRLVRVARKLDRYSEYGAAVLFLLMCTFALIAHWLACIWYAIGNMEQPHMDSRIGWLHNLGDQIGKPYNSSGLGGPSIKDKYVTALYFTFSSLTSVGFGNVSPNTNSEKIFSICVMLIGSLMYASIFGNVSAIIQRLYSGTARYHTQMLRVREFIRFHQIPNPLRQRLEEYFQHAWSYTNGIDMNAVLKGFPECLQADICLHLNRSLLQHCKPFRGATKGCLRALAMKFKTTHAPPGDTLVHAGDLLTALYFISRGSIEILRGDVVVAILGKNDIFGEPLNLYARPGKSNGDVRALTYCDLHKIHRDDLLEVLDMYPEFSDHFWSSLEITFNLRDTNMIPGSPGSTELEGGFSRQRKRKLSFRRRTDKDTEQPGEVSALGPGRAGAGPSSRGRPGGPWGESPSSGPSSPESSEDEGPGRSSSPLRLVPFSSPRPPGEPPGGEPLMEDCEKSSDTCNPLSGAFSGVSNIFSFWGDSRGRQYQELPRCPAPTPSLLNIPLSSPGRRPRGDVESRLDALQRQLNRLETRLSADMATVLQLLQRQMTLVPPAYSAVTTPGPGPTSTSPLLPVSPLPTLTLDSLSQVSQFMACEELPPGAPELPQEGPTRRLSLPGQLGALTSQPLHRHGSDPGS
Hit rate of the full screen: of about 310,000 compounds, about 14,000 (4.5%) showed an effect of 50% or more. Effects have a minus sign here. This excerpt belongs to a sample that is enriched for strong results.
observable: hERG current change (%, negative = inhibition) at 10uM (%)

COc1ccc(/C=C/C(=O)NC(=S)N2CCN(c3ccccn3)CC2)cc1 :: -6.85
O=[N+]([O-])c1ccc(S(=O)(=O)N(CC(O)CN2CCCCC2)c2ccccc2)cc1 (centres unmarked) :: -80.9
O=C(CN(c1cccc([N+](=O)[O-])c1)S(=O)(=O)c1ccccc1)N1CCCCC1 :: -24.8
COc1ccc([N+](=O)[O-])cc1N(CC(O)CN1CCCCC1)S(=O)(=O)c1ccccc1 (centres unmarked) :: -11.2
Cc1ccc(N(CC(=O)N2CCCCCC2)S(=O)(=O)c2ccccc2)cc1 :: -25.3
